I'd be grateful if you could share measured MIC for these entries.
Tested on: Bacillus subtilis
assay_comment: Antimicrobial activity against Bacillus subtilis MTCC 430 assessed as growth inhibition after 24 hr by agar streak dilution technique
Type: functional
study_conditions: MTCC 430, 24 h
Numbers only, in µg/mL.

Cc1cnc(N2C(=O)C(Cl)C2c2cc3ccccc3nc2Cl)s1 (stereo unspecified) = 50

Give me MIC for each of these compounds, listed below.
1. O=C1CSC(c2cc3ccccc3nc2Cl)N1c1cccc([N+](=O)[O-])c1 (stereo unspecified)
2. Cc1ccccc1N1C(=O)CSC1c1cc2ccccc2nc1Cl (stereo unspecified)
3. O=C1CSC(c2cc3ccccc3nc2Cl)N1c1ccccc1 (stereo unspecified)
4. O=C1C(Cl)C(c2cc3ccccc3nc2Cl)N1c1cccc(Cl)c1 (stereo unspecified)
5. Cc1ccc(N2C(=O)CSC2c2cc3ccccc3nc2Cl)cc1 (stereo unspecified)

(A)
1: 50; 2: 100; 3: 100; 4: 12.5; 5: 100

Hey, quick one: what's MIC for each of these?
1. Cc1cnc(N2C(=O)CSC2c2cc3ccccc3nc2Cl)s1 (stereo unspecified)
2. O=C1CSC(c2cc3ccccc3nc2Cl)N1c1ccc(Cl)cc1 (stereo unspecified)

(A)
1: 50; 2: 12.5

Please supply MIC for each of the following items, keeping them in order.
1. Cc1cccc(N2C(=O)C(Cl)C2c2cc3ccccc3nc2Cl)c1 (stereo unspecified)
2. O=C1C(Cl)C(c2cc3ccccc3nc2Cl)N1c1ccc(Cl)cc1 (stereo unspecified)

(A)
1: 100; 2: 12.5

According to the records, this compound O=C1C(Cl)C(c2cc3ccccc3nc2Cl)N1c1ccccc1Cl (stereo unspecified) displays MIC of 12.5
